# System: Mycobacterium tuberculosis
# experimental.details: Antimycobacterial activity against Mycobacterium tuberculosis H37Rv ATCC 27294 by broth micro dilution assay
# Format: functional
measurement.type: MIC (µg/mL)
One number for each entry, in µg/mL.

# returns recorded MIC (system: Mycobacterium tuberculosis) for COc1cc(C2=NN(C(N)=S)C(c3ccccc3)C2)ccc1OCC(=O)O (configuration not stated) 6.25

Dear reader, for each entry below, please note its MIC.
1. COc1cc(C2=NN(C(N)=S)C(c3ccc(N)cc3)C2)ccc1OCC(=O)O (configuration not stated)
2. COc1cc(C2=NN(C(N)=O)C(c3ccc(C)cc3)C2)ccc1OCC(=O)O (configuration not stated)
3. COc1cc(C2=NN(C(N)=O)C(c3ccc(O)cc3)C2)ccc1OCC(=O)O (configuration not stated)
4. COc1cc(C2=NN(C(N)=O)C(c3ccccc3O)C2)ccc1OCC(=O)O (configuration not stated)
5. COc1cc(C2=NN(C(N)=O)C(Cc3ccccc3)C2)ccc1OCC(=O)O (configuration not stated)

1. 12.5
2. 4.12
3. 1.23
4. 0.58
5. 6.25

For each entry beneath this line, provide reported MIC.
1. COc1cc(C2=NN(C(N)=S)C(c3cccc([N+](=O)[O-])c3)C2)ccc1OCC(=O)O (configuration not stated)
2. COc1cc(C2=NN(C(N)=O)C(c3cccc([N+](=O)[O-])c3)C2)ccc1OCC(=O)O (configuration not stated)
3. COc1cc(C2=NN(C(N)=O)C(c3ccc(F)cc3)C2)ccc1OCC(=O)O (configuration not stated)
4. COc1cc(C2=NN(C(N)=O)C(c3ccc(Cl)cc3)C2)ccc1OCC(=O)O (configuration not stated)
5. COc1cc(C2=NN(C(N)=O)C(c3ccccc3)C2)ccc1OCC(=O)O (configuration not stated)
6. COc1cc(C2=NN(C(N)=O)C(c3ccccc3Cl)C2)ccc1OCC(=O)O (configuration not stated)
7. COc1cc(C2=NN(C(N)=S)C(c3ccccc3O)C2)ccc1OCC(=O)O (configuration not stated)

6.25
6.25
3.16
0.13
6.25
1.26
0.58

Give one value of MIC per listed compound.
1. COc1cc(C2=NN(C(N)=S)C(c3ccccc3Cl)C2)ccc1OCC(=O)O (configuration not stated)
2. COc1cc(C2=NN(C(N)=S)C(c3ccc(C)cc3)C2)ccc1OCC(=O)O (configuration not stated)
3. COc1cc(C2=NN(C(N)=S)C(Cc3ccccc3)C2)ccc1OCC(=O)O (configuration not stated)
4. COc1cc(C2=NN(C(N)=S)C(c3ccc(O)cc3)C2)ccc1OCC(=O)O (configuration not stated)

0.12
6.15
6.25
0.2

Record MIC for all entries; do not skip any.
1. COc1cc(C2=NN(C(N)=S)C(c3ccc([N+](=O)[O-])cc3)C2)ccc1OCC(=O)O (configuration not stated)
2. COc1cc(C2=NN(C(N)=O)C(c3ccc([N+](=O)[O-])cc3)C2)ccc1OCC(=O)O (configuration not stated)
3. COc1cc(C2=NN(C(N)=O)C(c3ccc(N)cc3)C2)ccc1OCC(=O)O (configuration not stated)
4. COc1cc(C2=NN(C(N)=S)C(c3ccc(F)cc3)C2)ccc1OCC(=O)O (configuration not stated)
5. COc1cc(C2=NN(C(N)=S)C(c3ccc(Cl)cc3)C2)ccc1OCC(=O)O (configuration not stated)

1: 6.32; 2: 6.25; 3: 5.32; 4: 0.96; 5: 0.06
